# TGT: Leukotriene B4 receptor (Cavia porcellus)
# PROTOCOL DETAILS: Inhibition of specific binding of [3H]-LTB4 to LTB4 receptor in guinea pig lung membranes
PARAMETER MEASURED: Ki (nM)

[I] CCc1cc(C(C)=O)c(O)cc1OCCCOc1cccc(Oc2ccccc2C(=O)[O-])c1.[Na+]
[II] CCCc1cc(Oc2cccc(C(=O)[O-])c2)ccc1OCCCOc1cc(O)c(C(C)=O)cc1CC.[Na+]
[III] CCCc1cc(Oc2ccc(C(=O)[O-])cc2)ccc1OCCCOc1cc(O)c(C(C)=O)cc1CC.[Na+]
[IV] CCCc1c(OCCCOc2cc(O)c(C(C)=O)cc2CC)cccc1Oc1ccccc1C(=O)[O-].[Na+]
Exercise: Consider the molecules listed above. Rank them by Ki in ascending numerical order. Dear reader, please state the labels in the requested order.
Solution: IV, I, II, III
(IV: 39 nM, I: 130 nM, II: 256 nM, III: 1200 nM)
